The reader will find reported enrichment ratio values listed item by item below.
B1: PhoQ; a variant is named by its letters at X, in order, P23837 (parent)
chain: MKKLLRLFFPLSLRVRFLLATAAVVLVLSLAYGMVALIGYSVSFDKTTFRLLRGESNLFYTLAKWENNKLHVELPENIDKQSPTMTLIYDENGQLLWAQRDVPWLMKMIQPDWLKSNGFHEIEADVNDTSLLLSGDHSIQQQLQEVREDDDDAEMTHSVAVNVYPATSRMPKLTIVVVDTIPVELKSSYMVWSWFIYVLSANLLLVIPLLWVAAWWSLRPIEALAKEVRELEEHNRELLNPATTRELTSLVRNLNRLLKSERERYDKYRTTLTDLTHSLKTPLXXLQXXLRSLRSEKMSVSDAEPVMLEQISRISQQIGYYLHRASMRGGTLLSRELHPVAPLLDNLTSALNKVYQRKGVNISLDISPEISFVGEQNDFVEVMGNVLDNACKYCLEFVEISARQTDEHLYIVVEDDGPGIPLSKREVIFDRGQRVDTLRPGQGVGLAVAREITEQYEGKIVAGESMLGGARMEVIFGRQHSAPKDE

Variants of: B1
Assay Summary: enrichment ratio after two sorts for PhoP signalling (ratio (wild type AVST 3.29)); higher = more functional
Run Conditions: with PhoP (E. coli)
In all, about 140,000 sequences were measured (“enrichment ratio after two sorts for PhoP signalling”: median about 0, highest 2% from about 11 on). What follows is part of a selection rich in the highest values, with near analogues and random picks from the rest.

[
  {
    "Mutation List": "HISH",
    "enrichment ratio": "≤ 0.25"
  },
  {
    "Mutation List": "NMSY",
    "enrichment ratio": "≤ 0.25"
  },
  {
    "Mutation List": "SNNY",
    "enrichment ratio": 8.91
  },
  {
    "Mutation List": "ELRR",
    "enrichment ratio": "≤ 0.25"
  },
  {
    "Mutation List": "STNM",
    "enrichment ratio": 11.4
  },
  {
    "Mutation List": "SNGM",
    "enrichment ratio": 15.3
  },
  {
    "Mutation List": "AKTN",
    "enrichment ratio": "≤ 0.25"
  },
  {
    "Mutation List": "SRGY",
    "enrichment ratio": "≤ 0.25"
  },
  {
    "Mutation List": "KSCR",
    "enrichment ratio": "≤ 0.25"
  },
  {
    "Mutation List": "MGQG",
    "enrichment ratio": "≤ 0.25"
  },
  {
    "Mutation List": "KFTM",
    "enrichment ratio": "≤ 0.25"
  },
  {
    "Mutation List": "MKSY",
    "enrichment ratio": "≤ 0.25"
  },
  {
    "Mutation List": "KSTN",
    "enrichment ratio": "≤ 0.25"
  },
  {
    "Mutation List": "HSSA",
    "enrichment ratio": "≤ 0.25"
  },
  {
    "Mutation List": "SNRM",
    "enrichment ratio": "≤ 0.25"
  },
  {
    "Mutation List": "SLNM",
    "enrichment ratio": "≤ 0.25"
  },
  {
    "Mutation List": "LGEK",
    "enrichment ratio": "≤ 0.25"
  },
  {
    "Mutation List": "SNNM",
    "enrichment ratio": 13.1
  },
  {
    "Mutation List": "SNGS",
    "enrichment ratio": 9.33
  },
  {
    "Mutation List": "SNGD",
    "enrichment ratio": "≤ 0.25"
  },
  {
    "Mutation List": "SQNM",
    "enrichment ratio": 1.65
  },
  {
    "Mutation List": "YTNM",
    "enrichment ratio": "≤ 0.25"
  }
]
